target: human Claudin-6 (CLDN6) (human) (UniProt P56747); assay: FACS, 0.3 ug Ab, ARK2 cells (2nd Ab only 1351.21)
Field: FACS fluorescence. Provide a value for each of the binders that follow.

Could you please provide reported FACS fluorescence for AB18-chim (antibody, V domains shown) VH: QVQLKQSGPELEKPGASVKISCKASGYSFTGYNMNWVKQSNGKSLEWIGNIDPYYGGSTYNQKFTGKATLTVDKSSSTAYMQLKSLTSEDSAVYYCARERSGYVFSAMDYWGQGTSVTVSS VL: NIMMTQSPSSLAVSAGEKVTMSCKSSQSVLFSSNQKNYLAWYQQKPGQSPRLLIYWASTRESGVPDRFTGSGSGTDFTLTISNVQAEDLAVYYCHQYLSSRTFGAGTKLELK ? Thanks! 3440

Could you now consider this next binder?
Assign FACS fluorescence to the following record: AB1-Chim (antibody, V domains shown) VH: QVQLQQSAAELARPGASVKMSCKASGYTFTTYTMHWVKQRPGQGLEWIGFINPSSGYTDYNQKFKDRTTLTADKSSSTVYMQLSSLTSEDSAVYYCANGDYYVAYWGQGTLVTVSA VL: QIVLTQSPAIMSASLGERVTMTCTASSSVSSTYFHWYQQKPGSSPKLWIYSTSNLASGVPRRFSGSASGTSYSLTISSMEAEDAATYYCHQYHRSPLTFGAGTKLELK 58800

All values here come from patent US20230049752A1.
